Overview of reported pKd across a group of binders:
experimental.system: c-terminal SH3 domain of EhMyosin IB (EhMySH3) (Entamoeba histolytica)
assay.name: SPR; Autolab SPR; EhMySH3 immobilised on an 11-MUA gold chip (NHS/EDC, up to 700 RU), peptides injected at 20 ul/min; 10 mM HEPES, 150 mM NaCl, 3 mM EDTA, 0.05% NP-40, pH 7.4; 25 C
pKd: −log10 of the molar value. Ends that are not written are not given here.
observable: pKd

> print(dat)
                                     binder  observable  quantitative.result
1  NIVPIQPPQ (not fully specified) [peptide P3 from Rho family GTPase]         pKd                 3.00
2  QHCPNVPII (not fully specified) [peptide P5 from Rho family GTPase]         pKd                 3.15
